Values compiled from patent US11358949B2.

Listed here are compounds together with their documented pIC50.
Biological target: TYRO3/SKY (Homo sapiens)
Sequence (Q06418 41-890): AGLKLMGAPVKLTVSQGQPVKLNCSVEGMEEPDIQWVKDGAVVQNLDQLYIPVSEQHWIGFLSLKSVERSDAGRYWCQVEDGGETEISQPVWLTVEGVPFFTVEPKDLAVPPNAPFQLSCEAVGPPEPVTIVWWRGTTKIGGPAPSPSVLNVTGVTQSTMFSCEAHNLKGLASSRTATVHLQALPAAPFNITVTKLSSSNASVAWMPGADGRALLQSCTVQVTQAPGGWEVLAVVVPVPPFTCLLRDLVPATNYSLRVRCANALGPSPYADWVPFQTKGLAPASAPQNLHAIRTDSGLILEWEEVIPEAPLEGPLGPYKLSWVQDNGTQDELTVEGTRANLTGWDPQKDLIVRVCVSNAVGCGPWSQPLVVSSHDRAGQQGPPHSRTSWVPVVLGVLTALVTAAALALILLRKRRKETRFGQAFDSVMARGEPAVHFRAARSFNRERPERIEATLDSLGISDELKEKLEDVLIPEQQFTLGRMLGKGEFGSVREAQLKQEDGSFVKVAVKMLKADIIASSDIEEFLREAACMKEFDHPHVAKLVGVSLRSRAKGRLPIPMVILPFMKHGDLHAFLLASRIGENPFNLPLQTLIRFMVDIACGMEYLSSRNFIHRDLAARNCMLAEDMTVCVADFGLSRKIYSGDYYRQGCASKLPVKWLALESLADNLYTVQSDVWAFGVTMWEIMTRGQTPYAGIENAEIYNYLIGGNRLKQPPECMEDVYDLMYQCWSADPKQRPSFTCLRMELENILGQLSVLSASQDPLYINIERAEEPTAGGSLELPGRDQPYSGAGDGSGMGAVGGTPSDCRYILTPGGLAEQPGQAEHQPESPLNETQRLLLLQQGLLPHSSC
Assay: HotSpot Kinase Assay, TYRO3/SKY
pIC50: −log10 of the molar value.

Consider the worked cases shown below.
chemical smiles	pIC50
COc1cc2c(Oc3ccc(NC(=O)C4(C(=O)Nc5ccc(F)cc5)CC4)cc3)ccnc2cc1OC(=O)N1CCN(C)CC1	6.00 to 7.00
COc1cc2nccc(Oc3ccc(NC(=O)C4(C(=O)Nc5ccc(F)cc5)CC4)cc3)c2cc1OC(=O)N1CCNCC1(C)C	> 7.00
COc1cc2c(Oc3ccc(NC(=O)C4(C(=O)Nc5ccc(F)cc5)CC4)cc3F)ccnc2cc1OC(=O)N1CCN(C)C[C@H]1C	6.00 to 7.00
COc1cc2c(Oc3ccc(NC(=O)C4(C(=O)Nc5ccc(F)cc5)CC4)cc3F)ncnc2cc1OC(=O)N1CCNC[C@H]1C	6.00 to 7.00

Value lookup for pIC50; key = `COc1cc2nccc(Oc3ccc(NC(=O)C4(C(=O)Nc5ccc(F)cc5)CC4)cc3)c2cc1OC(=O)N1[C@H](C)CN(C)C[C@@H]1C` > 7.00

Value lookup for pIC50; key = `COc1cc2c(Oc3ccc(NC(=O)C4(C(=O)Nc5ccc(F)cc5)CC4)cc3)ncnc2cc1OC(=O)N1CCNC[C@H]1C` 6.00 to 7.00

Value lookup for pIC50; key = `COc1cc2c(Oc3ccc(NC(=O)C4(C(=O)Nc5ccc(F)cc5)CC4)cc3)ccnc2cc1OC(=O)N1CC[C@@H](O)C1` < 6.00

Value lookup for pIC50; key = `COc1cc2c(Oc3ccc(NC(=O)C4(C(=O)Nc5ccc(F)cc5)CC4)cc3F)ncnc2cc1OC(=O)N1CCN(C)C[C@H]1C` 6.00 to 7.00

Value lookup for pIC50; key = `COc1cc2c(Oc3ccc(NC(=O)C4(C(=O)Nc5ccc(F)cc5)CC4)cc3)ccnc2cc1OC(=O)N1C[C@H]2C[C@@H]1CN2C` 6.00 to 7.00

Value lookup for pIC50; key = `COc1cc2c(Oc3ccc(NC(=O)C4(C(=O)Nc5ccc(F)cc5)CC4)cc3)ccnc2cc1OC(=O)N1[C@H](C)CNC[C@@H]1C` 6.00 to 7.00

Value lookup for pIC50; key = `COc1cc2nccc(Oc3ccc(NC(=O)C4(C(=O)Nc5ccc(F)cc5)CC4)cc3)c2cc1OC(=O)N1[C@H](C)CNC[C@@H]1C` > 7.00

Value lookup for pIC50; key = `COc1cc2nccc(Oc3ccc(NC(=O)C4(C(=O)Nc5ccc(F)cc5)CC4)cc3)c2cc1OC(=O)N1CCN(C)CC1` > 7.00

Value lookup for pIC50; key = `COc1cc2c(Oc3ccc(NC(=O)C4(C(=O)Nc5ccc(F)cc5)CC4)cc3)ccnc2cc1N1CCNC1=O` 6.00 to 7.00
